- PROCEDURE_SUMMARY: Measurement of critical degree of supersaturation of spherulite
- Type: physicochemical
Where a name gives a salt, the structure may show the parent alone.
PROPERTY_LABEL: actual measured value of the critical degree of supersaturation

COMPOUND	ENDPOINT_VALUE
Cc1ccccc1C(=O)Nc1ccc(C(=O)N2CCCC(O)c3cc(Cl)ccc32)c(C)c1 (stereo not shown) [Tolvaptan]	4.8
Cn1c(=O)c2[nH]cnc2n(C)c1=O.[Mg] [Theophylline magnesium salt]	3.5
CC[C@H]1OC(=O)[C@H](C)[C@@H](O[C@H]2C[C@@](C)(OC)[C@@H](O)[C@H](C)O2)[C@H](C)[C@@H](O[C@@H]2O[C@H](C)C[C@H](N(C)C)[C@H]2O)[C@](C)(OC)C[C@@H](C)C(=O)[C@H](C)[C@@H](O)[C@]1(C)O [Clarithromycin]	17
CN(C)CC/C=C1/c2ccccc2COc2ccc(CC(=O)O)cc21 [Olopatadine]	9.7
N#C[C@@H]1CCCN1C(=O)CNC12CC3CC(CC(O)(C3)C1)C2 [Vildagliptin]	9.2
Cc1c(OCC(F)(F)F)ccnc1C[S+]([O-])c1nc2ccccc2[nH]1 (stereo not shown) [Lansoprazole]	10.9
CN(C)CCC[C@@]1(c2ccc(F)cc2)OCc2cc(C#N)ccc21 [Escitalopram oxalate]	3.7
